# Protocol: HCT116 colon cancer cell growth inhibition, primary screen, CellTiter-Glo luminescence, NPC library (AID 1117342)
# Run Parameters: at 20 µM (top of the series)
Calls of active or inactive are those of the source.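 How the source made its calls: active means compounds that lower survival of HCT116 colon cancer cells in the luminescence readout, no numeric limit stated; inactive means the rest.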
Result Type: inhibition of viability

Examples from the recorded data:
>>> recorded_measurement("COc1ccc2cc(CCC(C)=O)ccc2c1")
"-6.2% (inactive)"
>>> recorded_measurement("COc1cc(S(N)(=O)=O)cc(C(=O)O)c1OC")
"23.4% (inactive)"
>>> recorded_measurement("O=C(O)c1cn(C2CC2)c2cc(Cl)c(F)cc2c1=O")
"42.5% (inactive)"

Consider the compound `CC(C)C(=O)Nc1cccc(C(F)(F)F)c1` and give its recorded inhibition of viability.
0.9% (inactive)

Supply reported inhibition of viability belonging to this compound: `CCCCCCCCCCCCCC[N+](C)(C)Cc1ccccc1`
99.2% (active)

Determine from records and report inhibition of viability for `CCCCN=C(N)N=C(N)N`
3.4% (inactive)
